Data credit: patent US10980889B1

Exercise: for every item that follows, state its recorded IC50.
tested on: P-Akt (S473); experiment: Cell based AlphaLISA assay, inhibition of P-Akt (S473) in MDA-MB-468 cells (mTORC2 substrate); settings: Homo sapiens, 4 h, AlphaLisa, two to four hours at 37° C., read-out: pIC50 for Inhibition of mTORC1 and mTORC2 Substrate Phosphorylation p-AKT1/2/3-(S473) (converted)

| molecule | measured |
| --- | --- |
| CO[C@H]1C[C@@H]2CC[C@@H](C)[C@@](O)(O2)C(=O)C(=O)N2CCCCC2C(=O)O[C@H]([C@H](C)C[C@@H]2CC[C@@H](OC(=O)NCc3cnc(N4CCN(C(=O)CN(C)CC(=O)NCCOCCOCCC(=O)NCCCCn5nc(-c6ccc7oc(N)nc7c6)c6c(N)ncnc65)CC4)nc3)[C@H](OC)C2)C[C@@H](OC)[C@H](C)/C=C(\C)[C@@H](O)[C@@H](OC)C(=O)[C@H](C)C[C@H](C)/C=C/C=C/C=C/1C (some centres unmarked) | 3.16 to 31.6 nM |

Now turn to the next molecule.
Exercise: So what does the record say about IC50 for CO[C@H]1C[C@@H]2CC[C@@H](C)[C@@](O)(O2)C(=O)C(=O)N2CCCC[C@H]2C(=O)O[C@H]([C@H](C)C[C@@H]2CC[C@@H](OC(=S)NCc3cnc(N4CCN(C(=O)CCOCCN5CCN(c6ncc(C(=O)N7CCc8cc(Cn9nc(-c%10ccc%11oc(N)nc%11c%10)c%10c(N)ncnc%109)ccc8C7)cn6)CC5)CC4)nc3)[C@H](OC)C2)C[C@@H](OC)[C@H](C)/C=C(\C)[C@@H](O)[C@@H](OC)C(=O)[C@H](C)C[C@H](C)/C=C/C=C/C=C/1C ?
Key: > 1000 nM

---

Consider the following molecules; for each one, report its IC50.
tested on: P-Akt (S473); assay: Cell based AlphaLISA assay, inhibition of P-Akt (S473) in MDA-MB-468 cells (mTORC2 substrate); details: Homo sapiens, 4 h, AlphaLisa, two to four hours at 37° C., read-out: pIC50 for Inhibition of mTORC1 and mTORC2 Substrate Phosphorylation p-AKT1/2/3-(S473) (converted)

| chemicalStructure | measured |
| --- | --- |
| CO[C@H]1C[C@@H]2CC[C@@H](C)[C@@](O)(O2)C(=O)C(=O)N2CCCC[C@H]2C(=O)O[C@H]([C@H](C)C[C@@H]2CC[C@@H](OC(=O)NCCOCCOCCOCCOCCOCCOCCOCCOCCC(=O)N3CCc4cc(Cn5nc(-c6ccc7oc(N)nc7c6)c6c(N)ncnc65)ccc4C3)[C@H](OC)C2)C[C@H](N=[N+]=[N-])[C@H](C)/C=C(\C)[C@@H](O)[C@@H](OC)C(=O)[C@H](C)C[C@H](C)/C=C/C=C/C=C/1C | 3.16 to 31.6 nM |

Exercise: Which measured IC50 value corresponds to CO[C@H]1C[C@@H]2CC[C@@H](C)[C@@](O)(O2)C(=O)C(=O)N2CCCC[C@H]2C(=O)O[C@H]([C@H](C)C[C@@H]2CC[C@@H](OC(=O)NCc3cnc(N4CCN(CCOCCOCCOCCOCCC(=O)N5CCc6cc(Cn7nc(-c8ccc9oc(N)nc9c8)c8c(N)ncnc87)ccc6C5)CC4)nc3)[C@H](OC)C2)C[C@@H](OC)[C@H](C)/C=C(\C)[C@@H](O)[C@@H](OC)C(=O)[C@H](C)C[C@H](C)/C=C/C=C/C=C/1C ?
Key: > 1000 nM
